Values from paper PMC5080452

Each entry below carries its recorded Papp.
Assay: in vitro
Settings: pig, PAMPA
# do not omit the unit; it follows the number

Look over these answered cases.
Entry CC1=CC2Cc3nc4cc(Cl)ccc4c(NCCCCCCCCCNC(=N)N)c3C(C1)C2 (centres unmarked) [6e] has what Papp?
5.4 ×10⁻⁶ cm/s

What measured Papp goes with CC1=CC2Cc3nc4cc(Cl)ccc4c(NCc4ccc(C#N)cc4)c3C(C1)C2 (centres unmarked) [4h] ?
19.3 ×10⁻⁶ cm/s

Looking for the measured Papp of CC1=CC2Cc3nc4cc(Cl)ccc4c(NCCCCCCCCCC#N)c3C(C1)C2 (centres unmarked) [4f] , can you help?
11.3 ×10⁻⁶ cm/s

Next item in the queue.
Entry under review: CC1=CC2Cc3nc4cc(Cl)ccc4c(NCCCCCC#N)c3C(C1)C2 (centres unmarked) [4b] . Reported Papp?
12.4 ×10⁻⁶ cm/s

###

Biological target: Electrophorus electricus (Ee) AChE (Electrophorus electricus)
Sequence (O42275 24-633): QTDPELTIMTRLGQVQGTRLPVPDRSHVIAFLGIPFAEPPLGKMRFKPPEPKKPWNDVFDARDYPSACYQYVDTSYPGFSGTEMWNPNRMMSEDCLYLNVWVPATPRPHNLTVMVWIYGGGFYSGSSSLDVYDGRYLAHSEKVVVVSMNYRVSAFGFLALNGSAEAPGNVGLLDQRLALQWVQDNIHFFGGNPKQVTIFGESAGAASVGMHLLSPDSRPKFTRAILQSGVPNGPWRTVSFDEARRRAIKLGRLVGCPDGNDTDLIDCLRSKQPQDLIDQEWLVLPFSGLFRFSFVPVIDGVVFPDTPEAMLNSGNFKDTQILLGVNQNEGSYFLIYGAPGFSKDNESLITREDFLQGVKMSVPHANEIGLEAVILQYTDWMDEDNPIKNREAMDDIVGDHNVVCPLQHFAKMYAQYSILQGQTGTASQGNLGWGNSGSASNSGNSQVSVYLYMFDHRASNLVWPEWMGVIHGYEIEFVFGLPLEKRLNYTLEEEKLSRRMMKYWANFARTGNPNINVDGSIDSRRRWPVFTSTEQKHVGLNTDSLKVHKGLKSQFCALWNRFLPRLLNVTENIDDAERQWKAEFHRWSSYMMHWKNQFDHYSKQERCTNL
In plain terms, low IC50, meaning strictly below 30 nM, gives met, and everything else gives not met.

Recorded results for 4 molecules are shown here.
API: query returns whether the molecule falls strictly under 30 nM in IC50. Query: N#CCCCCCCNc1c2c(nc3ccccc13)CCCC2 [11c]
not met

Please indicate whether the reported IC50 of CC1=CC2Cc3nc4cc(Cl)ccc4c(NCCCN4CCCCC4)c3C(C1)C2 (racemic) [compound 7] is strictly below 30 nM.
not met

Is the reported IC50 for N#CCCCCCCCNc1c2c(nc3cc(Cl)ccc13)CCCC2 [12d] strictly below 30 nM?
not met

IC50 under 30 nM? Item: NCCCCCCCNc1c2c(nc3ccccc13)CCCC2 [13c]
met

Further cases:
Just wondering, is IC50 of CC1=CC2Cc3nc4cc(Cl)ccc4c(NCCCCCCNC(=N)N)c3C(C1)C2 (stereo not drawn) [6b] below 30 nM?
met

Confirm or reject: IC50 of CC1=CC2Cc3nc4cc(Cl)ccc4c(NCc4ccc(C#N)cc4)c3C(C1)C2 (stereo not drawn) [4h] lies strictly below 30 nM
not met

Confirm or reject: IC50 of CC1=CC2Cc3nc4cc(Cl)ccc4c(NCCCCCC#N)c3C(C1)C2 (stereo not drawn) [4b] lies strictly below 30 nM
not met

Quick check: IC50 of N=C(N)NCCCCCCCNc1c2c(nc3ccccc13)CCCC2 [15c] under 30 nM?
met

###

Here, each record is paired with measured Papp data.
Assay: in vitro
Conditions: pig, PAMPA
Report only the number, with the unit nm/s understood.

Illustrative cases are given below, each with its answer.
Please report the recorded Papp for NCCCCCCCCCNc1c2c(nc3cc(Cl)ccc13)CCCC2 [14e] .
58

Which Papp is listed for CC1=C[C@@H]2Cc3nc4cc(Cl)ccc4c(NCc4ccc(CN)cc4)c3[C@H](C1)C2 ?
117

Any idea what Papp was measured for N#CCCCCCCCNc1c2c(nc3cc(Cl)ccc13)CCCC2 [12d] ?
147

Next:
Would you kindly share the measured Papp for N=C(N)NCCCCCCCCCNc1c2c(nc3ccccc13)CCCC2 [15e] ?
65

Please report the recorded Papp for N#CCCCCCCNc1c2c(nc3ccccc13)CCCC2 [11c] .
112

What value of measured Papp is listed for CC1=CC2Cc3nc4cc(Cl)ccc4c(NCCCCCCNC(=N)N)c3C(C1)C2 (stereo not shown) ?
29

# lookup: Papp of N#CCCCCCCNc1c2c(nc3cc(Cl)ccc13)CCCC2 [12c]
167

Which measured Papp value corresponds to CC1=CC2Cc3nc4cc(Cl)ccc4c(NCCCCCCCN)c3C(C1)C2 (stereo not shown) ?
76

What value of measured Papp is listed for CC1=CC2Cc3nc4cc(Cl)ccc4c(NCCCCCCCCCCCN)c3C(C1)C2 (stereo not shown) ?
40

Entry N=C(N)NCCCCCCCNc1c2c(nc3ccccc13)CCCC2 [15c] : reported Papp = ?
59
